assay: clinical; details: male, human, in vivo, po, 10 mg
TEST_READOUT: MRT

Q: Supply reported MRT belonging to this molecule: COCCCOc1ccnc(C[S+]([O-])c2nc3ccccc3[nH]2)c1C (stereo not shown) [rabeprazole, Rabeprazole]
Ans: 4.4 h

====

Test: clinical
Conditions: female, human, in vivo, po, 10 mg
Procedure: Analysis of biochemical parameters was performed on all subjects participating in the clinical trial and the methods are presented in Supplementary Information S1. […] Pharmacokinetic parameters calculated by NCA were estimated based on plasma concentration values over time after orally administering a 10 mg rabeprazole enteric-coated tablet. […] The significant differences between genders were compared using a two-tailed t test, with significance determined at a p value of 0.05. […]
TEST_READOUT: half-life (h)
All answers are understood in h, so give the number only.

Q: Supply half-life value. Item: COCCCOc1ccnc(C[S+]([O-])c2nc3ccccc3[nH]2)c1C (stereo not shown) [rabeprazole, Rabeprazole]
Ans: 1.48

The origin of these recorded values is paper PMC10669052.
